Test system: MS2 coat protein
test_summary: apparent KD of MS2 coat protein; designed switch direction (-1 OFF switch, 1 ON switch): -1; higher = weaker reporter binding
details: Eterna round: R95; input ligand: microRNA oligo, concentration not stated
Mark Yes for reported apparent KD of MS2 coat protein of 40 nM or greater; mark No for anything smaller.

As a guide, the following entries are already answered.
INSERT INTO results (biopolymer_sequence, assigned_category) VALUES
  ('AUAUAUAGUGUGAGGAUAUGCUGGUCCUUGGAUCAGCAGAAGGCACAUGAGGAUCACCCAUGUAGUUUAUUUUA [Mat - Exclusion 4 - JL Mod - D1] (puzzle: Brourd''s mod of Exclusion 4)', 'No'),
  ('ACAAGCUUUUUGCAUCAAGCAUUAAAGUCUGUGAUCGUAACAUGAGGAUCACCCAUGUAAGUUUUAUGUCGUCUUAU [JR_SV3TOV2_Sub097] (puzzle: Sensor v3, turn-off variant 2)', 'Yes'),
  ('CCAUGUUAGCAGGAUAUGCAAUUAUUCUUUUACGCAGAAGGGCUUACAUGAGGAUCACCCAUGUAACAUUUCAU [JR_E6_Sub082] (puzzle: Exclusion 6)', 'No'),
  ('ACUUGCUUUUUGCUCGUCUUAUUUUUGUUGACGUUCUAUACAUGAGGAUCACCCAUGUUUUGUUCCUUGUGCUGGUA [JR_SV3TOV2_Sub073] (puzzle: Sensor v3, turn-off variant 2)', 'Yes'),
  ('GUAGAGUCAGGAUAUACGAGAUCGAAAGAUCGGCGGUCUGUACAUGAGGAUCACCCAUGUAGAAGGGACUCUAC [ChP 11-04-2015 #6] (puzzle: Exclusion 2)', 'No'),
  ('UGGUGGAAGCAGGAUAUGCUUGUAUUAUUGAUAGCAGAAGGGCUAACAUGAGGAUCACCCAUGUAAGAGGUGUA [JR_E6_Sub057] (puzzle: Exclusion 6)', 'Yes'),
  ('AUAACGUGGGCGUCCCACGGCAAGCUUUUUGCUCGUUUGACAUGAGGAUCACCCAUGUAGCUGCGGGAUCCCUAUGA [Anatsobe] (puzzle: Sensor v3, turn-off variant 2)', 'No'),
  ('GUAGAGACAGGAUAUACAUGAGGAUCACCCAUGUGAGGAGGAAAAGAGAGGAGAAAGAGUAGAAGGGUCGAAAG [JR_Exclu3_Sub030] (puzzle: Exclusion 3)', 'No');

Now look at this one.
IN: Quick check, apparent KD of MS2 coat protein >= 40 nM? ACUACUAACACGAAAGUGUUAGUACAAUAAGCUUGUGAAACAUGAGGAUCACCCAUGUCCUCAUAAGCUCGUCUUAA [salish99_TOv2_r3_012] (puzzle: Sensor v3, turn-off variant 2)
OUT: Yes

----------
Test system: MS2 coat protein
test_summary: apparent KD of MS2 coat protein; designed switch direction (-1 OFF switch, 1 ON switch): 1; higher = weaker reporter binding
details: Eterna round: R98; input ligand: none
reported_property: apparent KD of MS2 coat protein

Previously resolved entries follow.
INSERT INTO measurements (biopolymer_sequence, target_of_assay, reported_property, result) VALUES
  ('CCGAUUAGCACAGGAUAUGGGAGUUCGUAGCUCCCAGAAGGGUGAGCCAAUACAUGAGGAUCACCCAUGUGCGGUAGGUCAGGA [Energe]', 'MS2 coat protein', 'apparent KD of MS2 coat protein', '57.1 nM'),
  ('GACUUGGCUACAUGAGGAUCACCCAUGUUUGACUGGAUCGAUUAGGAUAUAGUGAUUUGCAACAAUUAGAAGGGAUAUUUACGG [byesamestateseeyounextround#3]', 'MS2 coat protein', 'apparent KD of MS2 coat protein', '32.9 nM'),
  ('CCUGUCGCAUGAGGAUAUGGUCAGCUUUGCUGACCAGAAGGCAUGUCAAUAGACAUGAGGAUCACCCAUGUAGUAAAGACAGGA [Mat - Same State NG 1 - JL Mod - D36]', 'MS2 coat protein', 'apparent KD of MS2 coat protein', '395 nM'),
  ('GCUUGCGACGCAGGAUAUGGGUGCCUGCACACGAGGAUCACCCGUGUAGAGGAAGCGAAAAGCUCUCAGAAGGGCGUCGCAGGC [United States 5 - Jieux - Same State NG 2]', 'MS2 coat protein', 'apparent KD of MS2 coat protein', '45.3 nM'),
  ('CCGAUGCAAAUAAAACAUGAGGAUCACCCAUGUGAGUCUCAUGAGGAUAUGCAGGUCAAAGACUUGCAGAAGGCAUGGCGUCGG [Eli sng3 2.08]', 'MS2 coat protein', 'apparent KD of MS2 coat protein', '1370 nM'),
  ('GGUUGACGACAAUUACAUGAGGAUCACCCAUGUUGUGGGAUGCAGGAUAUGUGGUAUAUUAUUUAACAGAAGGGCAAUAAUUUU [JR_SSNG3_Sub063]', 'MS2 coat protein', 'apparent KD of MS2 coat protein', '32.3 nM');

Provide apparent KD of MS2 coat protein values for the following items, in order.
1. GAUCCGAGCACAGGAUAUGUUAGAGAGGGUGAGACAGAAGGGUGCUCCGGUAAGGCCAAGCACAUGAGGAUCACCCAUGUACAU [Orbezaen]
2. ACAUACAUUCGAGGAUAUCGGUGAUUAAUUCUACGAGAAGGCGAUUUAAGAUAUAAUAUUUUAGACAUGAGGAUCACCCAUGUA [JR_SSNG1_Sub036]
3. GGUCCAUCAUGAGGAUAUGGCACCUUAUUGGUGCCAGAAGGCAUGUGUAUUCACAUGAGGAUCACCCAUGUAAUAAAUUGGACC [Pyrimidine booster 8]
4. GGAUCCAUCACAGGAUAUGCUGGACUUUGUCCAGCAGAAGGGUGAACAUGAGGAUCACCCAUGUAUUGGAUCCAUAUAUUUAAU [Denovo 35]
5. GUUGCUUUCCGAGGAUAUUCCGGGCGUGGCUAUACAUGAGGAUCACCCAUGUGGCGGAAGCCUAGGGAGAAGGCGGGCUGCUUC [salish99_SSNG2_r2_230]
6. UAGAUAUGGUGAGGAUAUGCAGAGGAUCACCCUGUAGAAGGCAUCAGGGUAGAAGGUGCAAGGAUCACCUGUAAGGAUAUAUCC [pwkr2 ssNG1 DX.29]
7. GGGUCGCUUGGAGGAUAUCCAACUAUCCUAGUUGGAGAAGGCCAAGCUACAGAGCUAAGCUUGGAAGUCACUUCGGACCCACAC [pwkr ssNG1 F9.4.5]
8. UGAUCGCUUGGAGGAUAUCCAACUAUCCUAGUUGGAGAAGGCCAAGCUACAGAGCUAAGCUUGGAAGUCACUUCGAAUCAACAC [pwkr Chip 1 Control 70 ssNG1 F9.4]

OUT:
1. 29.7 nM
2. 28.3 nM
3. 53.2 nM
4. 1290 nM
5. 17.1 nM
6. 1050 nM
7. 15.6 nM
8. 53.6 nM

IN: Query: apparent KD of MS2 coat protein; subject: UCUCUGGAAUACAUGAGGAUCACCCAUGUGUAAACAUUUACACAGGAUAUCGACGUCUGAGACGACGAGAAGGGUGGGCAGCAA [Rexele]
OUT: 252 nM

----------
Would you kindly list apparent KD of MS2 coat protein for each of these sequences?
Tested on: MS2 coat protein
test_summary: apparent KD of MS2 coat protein, switch OFF state (with FMN for OFF switches, without FMN for ON switches); designed switch direction (-1 OFF switch, 1 ON switch): -1; higher = weaker reporter binding
details: FMN input: 0 or 200 uM; Eterna round: R93 (includes R88 designs)
Give bare numbers, in nM.

Some solved cases for reference:
INSERT INTO results (biopolymer_sequence, target_of_assay, unit_descriptor, measured_number) VALUES
  ('GGCUAGUCAGGAUAUACGAACAUGUCAAAAGACGUGAAGGGACAUGAGGAUCACCCAUGUAGAAGGGACUAGCA [salish99-ex2-12]', 'MS2 coat protein', 'nM', 183),
  ('AAGAACUCAGGAUAUACUAAAGAAAUGAAAAGAAAGAAAGAACAUGAGGAUCACCCAUGUAGAAGGGAGAAGAA [Qareh Khawoserre]', 'MS2 coat protein', 'nM', 35.4),
  ('GAAAAGUCAGGAUAUGUGGAAAAAAUAAAAAAAAUAAAAACACAGAAGGGACAUGAGGAUCACCCAUGUUAAAA [Mat - Exclusion 4 - Mayanna - D137]', 'MS2 coat protein', 'nM', 28.8);

List the reported apparent KD of MS2 coat protein of each sequence below.
1. AAAAACUGAGGAUAUACAUGAGGAUCACCCAUGUAAAAAAAAAAAAAGGGAAAAAAAAGUAGAAGGCAGAAAAA [Nebiriau II]
2. AAAGAUGCAGGAUAUACAUGAGGAUCACCCAUGUUAGACCUGAAAAGGGAAAAAGAAAGUAGAAGGGCAUAAAA [Ex 3 May 32]
3. AGUCUGAGAGGAUAUACAUGGAAAAAAAAAGUUAGAUCCCUACAUGAGGAUCACCCAUGUAGAAGGCUCUGACA [Ex2 Design 149: Sub-opt 13]

OUT:
[41, 17, 15.2]
